meta.source: the supplement of paper PMC9170038

test system: MS2 coat protein; assay: apparent KD of MS2 coat protein; designed switch direction (-1 OFF switch, 1 ON switch): -1; higher = weaker reporter binding; conditions: input ligand: microRNA oligo, concentration not stated
Use 20 nM as the dividing line for apparent KD of MS2 coat protein, with the line itself on the yes side and lower values as no.

Consider the following illustrative entries.
## Input apparent KD of MS2 coat protein >= 20 nM for CUCUUGUGAGGAUAUCGAAGAAAAGAAAAGAAAGAAAAGAACGAGAAGGCACAUGAGGAUCACCCAUGUAAGAA [EteRNA is fun!] (Eterna round: R96, puzzle: Exclusion 4) ?
## Output yes

## Input apparent KD of MS2 coat protein >= 20 nM for CCGCGCCGGCGAGGAUAUUAGAAAGGAAGUGUAUAAGAAGGCGCCAUGCGCGAACAUGAGGAUCACCCAUGUGCCGCUCGUGUA [PowerStrip EXNG 1.24] (Eterna round: R96, puzzle: Exclusion NG 1) ?
## Output no

## Input apparent KD of MS2 coat protein >= 20 nM for UUAAUUACGGUGCUUUAACCUCACAUGAGGAUCACCCAUGUGCAGGAUAUCAGCUCGUUUAGAGCUGAGAAGGGCACUGCACCG [ExNG3/11-A2] (Eterna round: R96, puzzle: Exclusion NG 3) ?
## Output no

Next:
## Input apparent KD of MS2 coat protein >= 20 nM for AAAAUAAAGGCAGGAUAUCGGAGGCGCUGGCACCGAGAAGGGCCAGGGUGUCGUCAAAACAUGAGGAUCACCCAUGUGAGUGAC [Maanated] (Eterna round: R96, puzzle: Exclusion NG 1) ?
## Output no

## Input apparent KD of MS2 coat protein >= 20 nM for GCGCACCUACCAAAAGGUAGGUCAACAUGAGGAUCACCCAUGUAGGAUAUCGAUUGCUUUGCAGUCGAGAAGGAUAUGAUGCGC [JL ENG3 3.80 Mod 12] (Eterna round: R96, puzzle: Exclusion NG 3) ?
## Output no

----------
system: MS2 coat protein; assay: apparent KD of MS2 coat protein; designed switch direction (-1 OFF switch, 1 ON switch): 1; higher = weaker reporter binding; conditions: input ligand: FMN 200 uM
I'd be grateful if you could share measured apparent KD of MS2 coat protein for these entries.

Worked set:
## Input Given the entry ACAUGAAAUUUAGGAUAUUUUGUACCUACAUGUGACAUGAGGAUCACCCAUGUGGUAAGUAUGAGAAAGAAGGAAAAGAUAUGU [Equivalence 9 - Jieux - Same State NG 2] (Eterna round: R96, puzzle: Same State NG 2) , report its measured apparent KD of MS2 coat protein.
## Output 71.8 nM

## Input Given the entry GCUAGAAUUAAUGCCUACAUGAGGAUCACCCAUGUAUGUAGGCAGGAUAUCGUUUGCAAAGCAAACGAGAAGGGCCUUACUAGC [Mat - Same State NG 3 - JL Mod - D28] (Eterna round: R96, puzzle: Same State NG 3) , report its measured apparent KD of MS2 coat protein.
## Output 21.9 nM

## Input Given the entry GGUGGGUUGCUGCCGGCACAUGAGGAUCACCCAUGUUUUGGGAAGGAUAUGGUACCUAUUUGGUGCCAGAAGGUCCCGUUGGUG [salish99_SSNG3_r04_710] (Eterna round: R96, puzzle: Same State NG 3) , report its measured apparent KD of MS2 coat protein.
## Output 402 nM

## Input Given the entry GGAAUAUUUACAGGAUAUGAUUUGUAAAUUCGAUCAGAAGGGUAGAUGUCUUACACGAUUUGUUACAUGAGGAUCACCCAUGUU [SameState NG1 #10] (Eterna round: R96, puzzle: Same State NG 1) , report its measured apparent KD of MS2 coat protein.
## Output 31 nM

## Input Given the entry UGUACCUUCACAGGAUAUCAUGCGAAAAUUGCGUGAGAAGGGUGAAUACGGUGUUCAUUGUUGCACAUGAGGAUCACCCAUGUA [SameState NG1 #55] (Eterna round: R96, puzzle: Same State NG 1) , report its measured apparent KD of MS2 coat protein.
## Output 269 nM

## Input Given the entry GGAUGAUUGACAGGAUAUCAUUUGUAAAUUCGUUGAGAAGGGUCGAUUACUUACACGACGUGUUACAUGAGGAUCACCCAUGUU [SameState NG1 #4] (Eterna round: R96, puzzle: Same State NG 1) , report its measured apparent KD of MS2 coat protein.
## Output 117 nM

## Input Given the entry GGAACACAUGAGGAUCACCCAUGUCAAGGAGGUCGAGGAUAUAGGAAAAAAAAAAAAAAAUUAGAAGGUGAGGAGG [V1] (Eterna round: R96, puzzle: Same State 1) , report its measured apparent KD of MS2 coat protein.
## Output 270 nM

## Input Given the entry UAGCUCGUGUGAGGAUAUGCCGCCGUUUCGGCUGCAGAAGGUGCUACGUUACAUGAGGAUCACCCAUGUCUCUGUUGUUUCGUG [salish99_SSNG1_r04_957] (Eterna round: R96, puzzle: Same State NG 1) , report its measured apparent KD of MS2 coat protein.
## Output 18.9 nM

## Input Given the entry UCGUUCAUCGUAGGAUAUCUAGGAUAUGAACGAGGAUCACCCGAGCAGCAUCAGCGCAUCAGAGGAGAGAAGGACGCUGAUGCG [pwkr ssNG2 2F5 2FMN.20] (Eterna round: R96, puzzle: Same State NG 2) , report its measured apparent KD of MS2 coat protein.
## Output 30 nM

## Input Given the entry UUGAAGAAUUAAGGAUAUCGAGUCGUCUAAUUAAACAUGAGGAUCACCCAUGUGGGUUGCGGUAUCGAGAAGGUAAAUUACUAA [JL JR Sub099 mod 1] (Eterna round: R96, puzzle: Same State NG 2) , report its measured apparent KD of MS2 coat protein.
## Output 14.3 nM

Return reported apparent KD of MS2 coat protein values for all items listed beneath this line.
1. UGGCUCAGACGAGGAUAUGAUCAUGGCGCUUCGGCGCAUACAUGAGGAUCACCCAUGUAAAGUGAUCAGAAGGCGUCUGAGCCU [SSNG2/7-A3] (Eterna round: R96, puzzle: Same State NG 2)
2. ACAAGCUUUUUGCUCCUCUUAUGUCCGAAACAUGAGGAUCACCCAUGUAUAGAUUGUGUGUUGUUGUAGAUGCAAGA [JR_SHM208A_Sub061] (Eterna round: R96, puzzle: Sensor for hsa-mir-208a)
3. AUGAUAUACUCAGGAUAUAUGCGAGACGACGAGAUAGAAGGGAGAAGAUAAUGACGUACAUGAGGAUCACCCAUGUGAGGAUCA [Same State NG1 S4] (Eterna round: R96, puzzle: Same State NG 1)
4. GUUAGGAAUCUAGCAUACAUGAGGAUCACCCAUGUAAGUGGGAAGGAUAUGGUACAGAAACUGUACCAGAAGGUCUUAUUGAUU [Omei SS(NG) 3 AV6] (Eterna round: R96, puzzle: Same State NG 3)
5. AGGCUCAGACGAGGAUAUAUGUGGUCACAUGAGGAUCACCCAUGUCUCGAGCUUCGGCUCGAGGCAUAGAAGGUGUCUGAGCCA [SSNG2/5-C1] (Eterna round: R96, puzzle: Same State NG 2)
6. GGUACCAUCACAGGAUAUGCUAUCCUUUGGGUAGCAGAAGGGUGAUACAUGAGGAUCACCCAUGUGGUGCCAGGGCGUGAGCCC [JL SSNG1 1.91] (Eterna round: R96, puzzle: Same State NG 1)
7. UGAACCGUCACAGGAUAUCAUGCGAAAAUUGCGUGAGAAGGGUGGAUGUUGUGCUCAAAGUUAUACAUGAGGAUCACCCAUGUU [SameState NG1 #45] (Eterna round: R96, puzzle: Same State NG 1)
8. GGAGCCGGCCUAGGAUAUUUCAUAAAUUAACAUGAGGAUCACCCAUGUAGGCCAGAAGGCCUUGGGAAGAAGGAGGUCGGCUCC [Loop Effect - U27,U28] (Eterna round: R96, puzzle: Same State NG 2)

## Output
["14.8 nM", "73.8 nM", "26.9 nM", "45.1 nM", "115 nM", "901 nM", "133 nM", "16.8 nM"]
